- Test: p53 small molecule agonists, cell-based qHTS assay with rat liver microsomes: qHTS cell viability counter screen (AID 1963580); note: nearly all actives have a fitted effect of over 45% in size
- Setup conditions: p53RE-bla HCT-116 + rat microsomes, ATP viability, 16 h; series mostly up to 66 µM
Inconclusive results are not listed. Active and inactive are the calls of the source. Calls come from the whole dose curve.
Reported metric: outcome

smiles_record=O=C1NC(=O)C(=O)C(=O)N1 reading=inactive
smiles_record=c1cncc([C@@H]2CCCCN2)c1 reading=inactive
smiles_record=CC(N)=S reading=inactive
smiles_record=O=C(Nc1ccccc1)Nc1ccnc(Cl)c1 reading=inactive
smiles_record=CCc1ccc(C(=O)NN(C(=O)c2cc(C)cc(C)c2)C(C)(C)C)cc1 reading=inactive

Name the recorded outcome for Cc1ncsc1CCCl .
inactive

Fill in the blank: the reported outcome of CCOc1cc(OP(=S)(OC)OC)nc(CC)n1 is ____.
inactive

Quick check: outcome of CCCCCCCCCCCCCCCCCCn1cc[n+](C)c1 ?
inactive

Just for reference, PubChem BioAssay (Tox21) is where these values come from.
